- assayed_system: HNF4alpha8 (COS-7 nuclear extract) (Homo sapiens, UniProt P41235-5 1-452)
- Sequence: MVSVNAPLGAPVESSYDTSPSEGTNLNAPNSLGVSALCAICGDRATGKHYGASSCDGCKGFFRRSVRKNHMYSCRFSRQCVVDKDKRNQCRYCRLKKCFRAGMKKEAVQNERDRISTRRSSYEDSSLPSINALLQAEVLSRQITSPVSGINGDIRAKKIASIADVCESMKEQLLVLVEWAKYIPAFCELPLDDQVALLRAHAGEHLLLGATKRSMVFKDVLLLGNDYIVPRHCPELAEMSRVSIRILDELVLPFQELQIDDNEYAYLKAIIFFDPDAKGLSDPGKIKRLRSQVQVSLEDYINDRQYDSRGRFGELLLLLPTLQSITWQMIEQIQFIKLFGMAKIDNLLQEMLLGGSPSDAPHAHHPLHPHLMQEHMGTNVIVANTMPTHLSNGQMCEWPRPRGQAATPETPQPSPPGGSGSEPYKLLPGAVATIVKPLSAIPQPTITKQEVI
- method: protein-binding microarray; COS-7 nuclear extract on double-stranded Agilent 4x180k PBM; binding buffer, salt, pH and temperature not given in the material; high values mean tight binding
- condition_details: chain copies: 2; label: 3' end of strand 1 on the slide; dsDNA, one strand shown
In all, about 18,000 sequences were measured (“log2 normalized intensity”: median about 0.36, highest 2% from about 7.3 on). The entries come from a sample that favours the highest values as a whole.
Would you kindly list binding signal for each of these sequences?
Write the numeric value and follow it with the unit.

Consider the worked cases shown below.
{"residue_sequence": "ATGGGACCTTTGCCCTTCTTGTTAACCTCCGCCTAGGGAGATTAGAGTATCGGTCGA", "binding signal": "4.54 log2 normalized intensity"}
{"residue_sequence": "GAGATAAGTCACCTTATCAAGTCCGAACTCGCCTAGGGAGATTAGAGTATCGGTCGA", "binding signal": "1.35 log2 normalized intensity"}
{"residue_sequence": "CTATCTCAGATAGCTTTAGCCGGACTTTGTGCCTAGGGAGATTAGAGTATCGGTCGA", "binding signal": "5.85 log2 normalized intensity"}
{"residue_sequence": "CCCTGACCAAGGGTCATGCTGGTCTCCTTGGCCTAGGGAGATTAGAGTATCGGTCGA", "binding signal": "2.46 log2 normalized intensity"}
{"residue_sequence": "GTGCTGGTACATAGCAGGGGTTAGGTAAACGCCTAGGGAGATTAGAGTATCGGTCGA", "binding signal": "-0.36 log2 normalized intensity"}

Hey, can you go through the list below and give me binding signal for every item?
1. TCAGATAGCTTTAGCCGGACTTTGTCCTTTGCCTAGGGAGATTAGAGTATCGGTCGA
2. TAGCTTTAGCCGGACTTTGTCCTTTGATTTGCCTAGGGAGATTAGAGTATCGGTCGA
3. TCAGACAAGTTGCAGGGATGGACTTTAATCGCCTAGGGAGATTAGAGTATCGGTCGA

Return:
1. 8.54 log2 normalized intensity
2. 7.5 log2 normalized intensity
3. 7.17 log2 normalized intensity

Enquiry: Kindly indicate its recorded binding signal. Item: GTGAACCTTTGTCCCGTTATGGCACCAAGAGCCTAGGGAGATTAGAGTATCGGTCGA
Return: 1.55 log2 normalized intensity
